system: hSERT (Homo sapiens, UniProt P31645)
Construct: yellow fluorescent protein (YFP); expressed in transfected cells
Sequence (P31645 whole entry): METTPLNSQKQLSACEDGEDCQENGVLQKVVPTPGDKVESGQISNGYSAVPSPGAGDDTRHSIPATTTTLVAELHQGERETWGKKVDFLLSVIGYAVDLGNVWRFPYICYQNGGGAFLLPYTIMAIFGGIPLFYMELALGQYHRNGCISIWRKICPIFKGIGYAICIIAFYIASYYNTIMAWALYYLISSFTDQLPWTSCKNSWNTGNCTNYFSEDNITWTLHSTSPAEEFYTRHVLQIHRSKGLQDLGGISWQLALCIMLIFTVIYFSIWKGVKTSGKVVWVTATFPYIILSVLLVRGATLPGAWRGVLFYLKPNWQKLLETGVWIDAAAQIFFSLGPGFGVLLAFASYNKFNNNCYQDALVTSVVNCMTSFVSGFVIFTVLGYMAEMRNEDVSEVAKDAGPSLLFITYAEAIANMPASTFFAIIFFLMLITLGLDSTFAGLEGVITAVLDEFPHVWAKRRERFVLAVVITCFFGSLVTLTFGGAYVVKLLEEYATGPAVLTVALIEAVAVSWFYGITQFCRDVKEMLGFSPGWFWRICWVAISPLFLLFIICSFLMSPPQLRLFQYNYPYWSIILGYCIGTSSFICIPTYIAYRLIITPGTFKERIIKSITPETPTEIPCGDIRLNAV
protocol: Transporter uptake inhibition in HEK293 cells expressing hSERT
Assay type: cell-based
conditionInfo: IC50 on uptake mediated by hSERT, [3H]-5-HT uptake, mean (95% confidence interval)
Documented IC50 across a set of compounds
valueKind: IC50

compound | system | recordedMeasurement
CNC(C)C(O)c1ccc(C)cc1.Cl (stereo not drawn) [Dihydromephedrone] | hSERT (Homo sapiens, UniProt P31645) | 65 µM
Cc1ccc(C(=O)C(C)N)cc1.Cl (stereo not drawn) | hSERT (Homo sapiens, UniProt P31645) | 10.6 µM
CNC(C)C(=O)c1ccc(C)cc1.Cl (stereo not drawn) | hSERT (Homo sapiens, UniProt P31645) | 7.83 µM

###

system: hNET (Homo sapiens)
Construct: expressed in transfected cells
Sequence (P23975 whole entry): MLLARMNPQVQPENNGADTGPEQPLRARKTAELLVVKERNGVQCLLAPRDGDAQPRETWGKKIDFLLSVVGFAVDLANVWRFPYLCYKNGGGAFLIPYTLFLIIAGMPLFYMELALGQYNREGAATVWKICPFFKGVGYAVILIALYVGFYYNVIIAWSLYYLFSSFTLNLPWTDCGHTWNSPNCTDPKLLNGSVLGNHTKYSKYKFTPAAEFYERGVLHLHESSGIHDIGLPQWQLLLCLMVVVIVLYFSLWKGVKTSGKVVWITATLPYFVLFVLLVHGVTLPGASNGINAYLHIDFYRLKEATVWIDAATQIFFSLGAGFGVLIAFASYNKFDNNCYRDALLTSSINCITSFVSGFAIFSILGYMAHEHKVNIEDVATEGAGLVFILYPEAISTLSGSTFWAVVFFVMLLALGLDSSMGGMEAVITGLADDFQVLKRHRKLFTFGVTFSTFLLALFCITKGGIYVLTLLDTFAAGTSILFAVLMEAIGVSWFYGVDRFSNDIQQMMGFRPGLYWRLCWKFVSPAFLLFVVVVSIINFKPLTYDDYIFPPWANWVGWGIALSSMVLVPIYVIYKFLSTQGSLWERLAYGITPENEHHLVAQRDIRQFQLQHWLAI
protocol: Transporter uptake inhibition in HEK293 cells expressing hNET
Assay type: cell-based
conditionInfo: [3H]-MPP+ uptake, mean (95% confidence interval), read-out: IC50 on uptake mediated by hNET
pIC50: −log10 of the molar value.
valueKind: pIC50

molecule | recordedMeasurement
CNC(C)C(=O)c1ccc(CO)cc1.Cl (stereo not shown) | 5.31

###

system: NET (Rattus norvegicus)
Construct: a native tissue preparation that contains plasma membrane transporters in situ; from tissue; host or cells: rat whole brain minus striatum and cerebellum, synaptosomes
protocol: Transporter release assay in rat brain synaptosomes, NET
Assay type: biochemical
conditionInfo: [3H]-MPP+, mean (95% confidence interval), read-out: EC50 on transporter mediated efflux, NET
pEC50: −log10 of the molar value.

compound | pEC50
CNC(C)C(=O)c1ccc(CO)cc1.Cl (stereo not shown) | 6.82

###

system: hDAT (Homo sapiens, UniProt Q01959)
Construct: expressed in transfected cells
Sequence (Q01959 whole entry): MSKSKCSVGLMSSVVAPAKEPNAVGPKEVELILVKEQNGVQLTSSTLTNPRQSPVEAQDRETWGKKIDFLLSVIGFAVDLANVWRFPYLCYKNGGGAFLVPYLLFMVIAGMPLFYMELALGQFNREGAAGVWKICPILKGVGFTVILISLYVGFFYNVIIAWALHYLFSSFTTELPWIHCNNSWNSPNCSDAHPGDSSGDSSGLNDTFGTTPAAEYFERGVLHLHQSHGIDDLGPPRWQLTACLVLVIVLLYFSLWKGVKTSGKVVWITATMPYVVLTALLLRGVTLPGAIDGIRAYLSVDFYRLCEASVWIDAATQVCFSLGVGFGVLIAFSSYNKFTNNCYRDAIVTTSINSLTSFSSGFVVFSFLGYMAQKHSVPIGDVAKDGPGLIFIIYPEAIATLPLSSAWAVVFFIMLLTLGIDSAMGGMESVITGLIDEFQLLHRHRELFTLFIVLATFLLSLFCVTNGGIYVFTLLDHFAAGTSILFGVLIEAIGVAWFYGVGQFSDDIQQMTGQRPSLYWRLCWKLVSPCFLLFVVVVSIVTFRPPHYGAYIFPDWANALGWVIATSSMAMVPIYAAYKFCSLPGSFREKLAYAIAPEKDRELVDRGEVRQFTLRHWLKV
protocol: Transporter uptake inhibition in HEK293 cells expressing hDAT
Type: cell-based
conditionInfo: IC50 on uptake mediated by hDAT, [3H]-MPP+ uptake, mean (95% confidence interval)
pIC50: −log10 of the molar value.

compound | system | pIC50
CNC(C)C(O)c1ccc(C)cc1.Cl (stereo not drawn) [Dihydromephedrone] | hDAT (Homo sapiens, UniProt Q01959) | 4.62
Cc1ccc(C(=O)C(C)N)cc1.Cl (stereo not drawn) [Nor‐mephedrone] | hDAT (Homo sapiens, UniProt Q01959) | 5.20
CNC(C)C(=O)c1ccc(C)cc1.Cl (stereo not drawn) [Mephedrone] | hDAT (Homo sapiens, UniProt Q01959) | 6.11

###

system: NET (Rattus norvegicus, UniProt Q63380)
Construct: a native tissue preparation that contains plasma membrane transporters in situ; from tissue; host or cells: rat whole brain minus striatum and cerebellum, synaptosomes
Sequence (Q63380 1-617): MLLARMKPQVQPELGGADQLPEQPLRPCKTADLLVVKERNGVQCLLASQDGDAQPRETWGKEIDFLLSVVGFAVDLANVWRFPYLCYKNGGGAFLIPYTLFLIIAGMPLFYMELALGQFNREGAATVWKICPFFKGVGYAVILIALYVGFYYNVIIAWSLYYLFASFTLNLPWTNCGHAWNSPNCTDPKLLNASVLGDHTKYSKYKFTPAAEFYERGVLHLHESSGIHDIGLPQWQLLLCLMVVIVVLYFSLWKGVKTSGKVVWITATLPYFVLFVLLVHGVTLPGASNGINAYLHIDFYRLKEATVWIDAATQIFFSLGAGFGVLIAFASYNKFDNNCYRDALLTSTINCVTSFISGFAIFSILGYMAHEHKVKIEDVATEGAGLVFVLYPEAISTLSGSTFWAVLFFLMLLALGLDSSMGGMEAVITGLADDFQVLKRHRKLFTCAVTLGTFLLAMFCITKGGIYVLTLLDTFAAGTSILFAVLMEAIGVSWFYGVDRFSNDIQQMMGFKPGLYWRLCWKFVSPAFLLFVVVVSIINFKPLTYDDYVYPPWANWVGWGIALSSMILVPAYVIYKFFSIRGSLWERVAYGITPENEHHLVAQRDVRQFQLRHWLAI
protocol: Transporter release assay in rat brain synaptosomes, NET
Type: biochemical
conditionInfo: EC50 on transporter mediated efflux, NET, [3H]-MPP+, mean (95% confidence interval)
pEC50: −log10 of the molar value.
Documented pEC50 across a set of compounds
valueKind: pEC50

compound | valueKind | recordedMeasurement
CNC(C)C(=O)c1ccc(C)cc1.Cl (centres unmarked) [Mephedrone] | pEC50 | 7.05
Cc1ccc(C(=O)C(C)N)cc1.Cl (centres unmarked) [Nor‐mephedrone] | pEC50 | 7.00

###

system: hDAT (Homo sapiens, UniProt Q01959)
Construct: expressed in transfected cells
protocol: Transporter release (superfusion) assay in HEK293 cells expressing hDAT
Type: cell-based
conditionInfo: test drug 10 μM, monensin 10 μM; post hoc Bonferroni
valueKind: enhancement by monensin of drug-evoked [3H]-MPP+ release at hDAT (AUC)

molecule | recordedMeasurement
CNC(C)C(=O)c1ccc(C)cc1.Cl (stereo not shown) | significant
CNC(C)C(O)c1ccc(C)cc1.Cl (stereo not shown) [Dihydromephedrone] | not
CNC(C)C(=O)c1ccc(CO)cc1.Cl (stereo not shown) | significant
Cc1ccc(C(=O)C(C)N)cc1.Cl (stereo not shown) | significant

###

system: DAT (Rattus norvegicus)
Construct: a native tissue preparation that contains plasma membrane transporters in situ; from tissue; host or cells: rat striatum synaptosomes
Sequence (P23977 whole entry): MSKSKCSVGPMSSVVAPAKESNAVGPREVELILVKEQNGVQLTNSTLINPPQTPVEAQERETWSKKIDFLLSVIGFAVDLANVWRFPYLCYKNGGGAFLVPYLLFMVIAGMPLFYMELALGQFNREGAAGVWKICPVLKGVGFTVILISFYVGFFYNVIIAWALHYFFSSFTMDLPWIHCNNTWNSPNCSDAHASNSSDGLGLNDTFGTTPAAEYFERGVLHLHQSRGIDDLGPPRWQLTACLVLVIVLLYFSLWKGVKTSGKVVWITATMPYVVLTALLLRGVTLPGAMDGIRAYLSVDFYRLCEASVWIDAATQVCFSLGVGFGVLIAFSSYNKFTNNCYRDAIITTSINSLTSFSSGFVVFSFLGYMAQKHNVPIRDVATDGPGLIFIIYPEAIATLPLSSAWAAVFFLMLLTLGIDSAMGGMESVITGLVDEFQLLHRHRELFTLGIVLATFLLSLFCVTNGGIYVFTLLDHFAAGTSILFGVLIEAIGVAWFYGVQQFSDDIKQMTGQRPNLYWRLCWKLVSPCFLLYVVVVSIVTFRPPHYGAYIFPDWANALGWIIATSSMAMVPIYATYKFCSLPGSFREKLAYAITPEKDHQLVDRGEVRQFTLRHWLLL
protocol: Transporter release assay in rat brain synaptosomes, DAT
Format: biochemical
conditionInfo: EC50 on transporter mediated efflux, DAT, [3H]-MPP+, mean (95% confidence interval)
pEC50: −log10 of the molar value.

compound | pEC50
Cc1ccc(C(=O)C(C)N)cc1.Cl (centres unmarked) | 6.66
CNC(C)C(=O)c1ccc(C)cc1.Cl (centres unmarked) | 7.28

###

system: hDAT (Homo sapiens)
Construct: expressed in transfected cells
protocol: Transporter uptake inhibition in HEK293 cells expressing hDAT
Format: cell-based
conditionInfo: [3H]-MPP+ uptake, mean (95% confidence interval), read-out: IC50 on uptake mediated by hDAT
valueKind: IC50 (nM)

compound | valueUnits | recordedMeasurement
CNC(C)C(=O)c1ccc(CO)cc1.Cl (stereo not shown) | nM | 2920

###

system: hNET (Homo sapiens)
Construct: expressed in transfected cells
protocol: Transporter release (superfusion) assay in HEK293 cells expressing hNET
Type: cell-based
conditionInfo: test drug 10 μM, monensin 10 μM; post hoc Bonferroni
valueKind: enhancement by monensin of drug-evoked [3H]-MPP+ release at hNET (AUC)

compound | recordedMeasurement
CNC(C)C(=O)c1ccc(CO)cc1.Cl (stereo not shown) | significant
CNC(C)C(=O)c1ccc(C)cc1.Cl (stereo not shown) | significant
Cc1ccc(C(=O)C(C)N)cc1.Cl (stereo not shown) | significant
CNC(C)C(O)c1ccc(C)cc1.Cl (stereo not shown) [Dihydromephedrone] | not
